test: In vivo pharmacokinetics (PK) study in rats; design: species or system SD rats; details: rat, plasma; SD rats, IV 5 mg/kg
ENDPOINT NAME: clearance (mL/min/kg)

>>> print(df.to_string())
                                   compound  unit_string  readout_number
0  Cc1c(C(=O)Nc2ccc(F)c(C#N)c2)c(C)n(C)c1C(=O)C(=O)N[C@@H](C)C(F)(F)F [Example 12]    mL/min/kg             3.1

====

experiment: In vivo pharmacokinetic (PK) study in Beagle dog; parameters: species or system Beagle dogs; conditions: plasma, Beagle dogs, PO 5 mg/kg
ENDPOINT NAME: Cmax (ng/mL)

                            compound_smiles  readout_number
0  Cc1c(C(=O)Nc2ccc(F)c(C#N)c2)c(C)n(C)c1C(=O)C(=O)N[C@@H](C)C(F)(F)F            1280

====

# Lookup of reported CC50 at 6 days keyed by entry
Assay: In vitro cytotoxicity (CCK-8) in HepG2.2.15 cells
Assay type: cell-based
Conditions: human
Protocol: A bottle of HepG2.2.15 or HepAD38 cells in good exponential growth state was taken, washed once by adding 5 mL PBS, and then thereto was added 3 mL trypsin. The sample was digested in a cell culture incubator, and taken out from time to time and observed under a microscope. When the cells just fell off, 1 mL trypsin was discarded. […] After 1 to 2 hours, the absorbance was detected with microplate reader at 450 nm, and the inhibition rate and the CC50 were calculated.
ENDPOINT NAME: CC50 at 6 days

In [3]: df
Out[3]:
                                   compound   endpoint_name    result
0  Cc1c(C(=O)Nc2ccc(F)c(C#N)c2)c(C)n(C)c1C(=O)C(=O)NC1(C)CCOC1 (stereo not drawn) [Example 23]  CC50 at 6 days  > 100 µM
1  Cc1c(C(=O)Nc2ccc(F)c(C#N)c2)c(C)n(C)c1C(=O)C(=O)N[C@@H]1CCOC1 [Example 21]  CC50 at 6 days  > 100 µM
2  Cc1c(C(=O)Nc2ccc(F)c(C#N)c2)c(Cl)n(C)c1C(=O)C(=O)N[C@H](C)C(F)(F)F [Example 30]  CC50 at 6 days  > 100 µM

====

assay: In vivo pharmacokinetics (PK) study in rats; set-up: species or system SD rats; details: SD, rat, in vivo, po, 20 mg/kg
ENDPOINT NAME: half-life (h)

In [3]: df
Out[3]:
                            compound_smiles  readout_number
0  Cc1c(C(=O)Nc2ccc(F)c(C#N)c2)c(C)n(C)c1C(=O)C(=O)N[C@@H](C)C(F)(F)F            3.65

====

target: CYP 3A4 (Homo sapiens (Human), UniProt P08684)
Sequence (P08684 whole entry): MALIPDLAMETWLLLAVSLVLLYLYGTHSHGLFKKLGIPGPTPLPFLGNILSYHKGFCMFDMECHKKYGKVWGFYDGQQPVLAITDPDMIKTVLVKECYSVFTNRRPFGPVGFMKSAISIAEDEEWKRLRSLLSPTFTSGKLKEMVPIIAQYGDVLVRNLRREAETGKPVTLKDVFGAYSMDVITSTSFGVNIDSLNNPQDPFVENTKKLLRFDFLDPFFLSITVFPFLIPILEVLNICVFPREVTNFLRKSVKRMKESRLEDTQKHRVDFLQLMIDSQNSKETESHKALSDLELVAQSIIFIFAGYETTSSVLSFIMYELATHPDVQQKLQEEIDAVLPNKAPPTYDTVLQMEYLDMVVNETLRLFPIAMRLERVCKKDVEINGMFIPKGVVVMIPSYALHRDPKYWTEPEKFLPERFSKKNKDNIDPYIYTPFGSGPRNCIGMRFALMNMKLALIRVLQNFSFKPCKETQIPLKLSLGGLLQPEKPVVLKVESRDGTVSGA
// reported IC50 for each item listed
ENDPOINT NAME: IC50 (µM)

In [3]: df
Out[3]:
                            compound_smiles  endpoint_name  inequality_operator  readout_number
0  Cc1c(C(=O)Nc2ccc(F)c(C#N)c2)c(C)n(C)c1C(=O)C(=O)N[C@@H](C)C(F)(F)F           IC50                    >             200
1  Cc1c(C(=O)Nc2ccc(F)c(C#N)c2)c(C)n(C)c1C(=O)C(=O)NC1(C(F)(F)F)COC1           IC50                    =              76

====

experiment: In vivo pharmacokinetics (PK) study in rats; set-up: species or system SD rats; settings: rat, plasma; SD rats, PO 20 mg/kg
ENDPOINT NAME: AUC(0-inf) (ng·h/mL)

                            compound_smiles  endpoint_name  unit_string  readout_number
0  Cc1c(C(=O)Nc2ccc(F)c(C#N)c2)c(C)n(C)c1C(=O)C(=O)N[C@@H](C)C(F)(F)F     AUC(0-inf)      ng·h/mL           62300

====

assay: In vivo pharmacokinetic (PK) study in Beagle dog; parameters: species or system Beagle dogs; conditions: plasma, Beagle dogs, PO 5 mg/kg, read-out: AUC(0-72 h)
ENDPOINT NAME: AUC(0-t) (ng·h/mL)

                            compound_smiles  readout_number
0  Cc1c(C(=O)Nc2ccc(F)c(C#N)c2)c(C)n(C)c1C(=O)C(=O)N[C@@H](C)C(F)(F)F           61900

====

system: HBV DNA in HepG2.2.15 cells; test: In vitro cell HBV DNA inhibitory activity (anti-HBV activity) in HepG2.2.15 cells; format: cell-based; conditions: Hepatitis B virus, HepG2.2.15, 144 h
pEC50: −log10 of the molar value.
ENDPOINT NAME: pEC50

>>> print(df.to_string())
                                   compound        result
0  Cc1c(C(=O)Nc2ccc(F)c(C#N)c2)c(F)c(C(=O)C(=O)N[C@@H](C)C(F)(F)F)n1C [Example 54]        > 8.00
1  Cc1c(C(=O)Nc2ccc(F)c(C#N)c2)c(Cl)n(C)c1C(=O)C(=O)NC1(C)CC(O)C1 (centres unmarked) [Example 55]  7.30 to 8.00

====

test: In vivo pharmacokinetic (PK) study in Beagle dog; parameters: species or system Beagle dogs; settings: plasma, Beagle dogs, PO 5 mg/kg, read-out: MRT(0-t)
ENDPOINT NAME: MRT last (h)

In [3]: df
Out[3]:
                            compound_smiles  unit_string  readout_number
0  Cc1c(C(=O)Nc2ccc(F)c(C#N)c2)c(C)n(C)c1C(=O)C(=O)N[C@@H](C)C(F)(F)F            h            32.9

====

IC50 values for the compounds below.
target: CYP1A2 (Homo sapiens (Human))
Sequence (P05177 whole entry): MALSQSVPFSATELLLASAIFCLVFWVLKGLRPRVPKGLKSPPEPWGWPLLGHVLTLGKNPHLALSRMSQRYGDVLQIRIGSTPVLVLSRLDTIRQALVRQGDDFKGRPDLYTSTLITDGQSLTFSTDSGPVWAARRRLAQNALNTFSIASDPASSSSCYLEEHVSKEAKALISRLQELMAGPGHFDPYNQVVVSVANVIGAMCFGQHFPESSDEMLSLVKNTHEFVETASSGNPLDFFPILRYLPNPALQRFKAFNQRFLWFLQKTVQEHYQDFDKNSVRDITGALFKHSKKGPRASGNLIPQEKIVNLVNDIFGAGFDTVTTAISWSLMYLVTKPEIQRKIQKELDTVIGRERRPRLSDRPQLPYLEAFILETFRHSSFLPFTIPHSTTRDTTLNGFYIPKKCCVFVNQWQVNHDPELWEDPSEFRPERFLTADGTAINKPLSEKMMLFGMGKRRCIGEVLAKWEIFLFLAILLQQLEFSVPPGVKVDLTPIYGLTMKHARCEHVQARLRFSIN
ENDPOINT NAME: IC50 (µM)

>>> print(df.to_string())
                            compound_smiles  readout_number
0  Cc1c(C(=O)Nc2ccc(F)c(C#N)c2)c(C)n(C)c1C(=O)C(=O)NC1(C(F)(F)F)COC1             229
1  Cc1c(C(=O)Nc2ccc(F)c(C#N)c2)c(C)n(C)c1C(=O)C(=O)N[C@@H](C)C(F)(F)F            46.4

====

test: Stability of mouse liver microsomes in vitro; format: in vitro ADME
ENDPOINT NAME: Remaining (%) at 60 min

                                   molecule  readout_number
0  Cc1c(C(=O)Nc2ccc(F)c(C#N)c2)c(Cl)n(C)c1C(=O)C(=O)N[C@@H](C)C(F)(F)F [Example 29]            99.2
1  Cc1c(C(=O)Nc2ccc(F)c(C#N)c2)c(Cl)n(C)c1C(=O)C(=O)NC(C)(C)C [Example 17]            47.4
2  Cc1c(C(=O)Nc2ccc(F)c(C#N)c2)c(C)n(C)c1C(=O)C(=O)N[C@H](C)C(F)(F)F [Example 11]            47.7
3  Cc1c(C(=O)Nc2ccc(F)c(C#N)c2)c(C)n(C)c1C(=O)C(=O)NC1CCOC1 (stereo not shown) [Example 7]            81.6

====

# maps each entry to its solubility at 16 h
assay: Solubility in PBS buffer at pH 7.4; type: physicochemical; details: aqueous buffer, PBS buffer pH 7.4, 25° C.
ENDPOINT NAME: solubility at 16 h (µM)

>>> df
                                   compound  readout_number
0  Cc1c(C(=O)Nc2ccc(F)c(C#N)c2)c(C)n(C)c1C(=O)C(=O)NC1(C)COC1            81.8
1  COC(=O)C(C)(C)NC(=O)C(=O)c1c(C)c(C(=O)Nc2ccc(F)c(C#N)c2)c(C)n1C             9.6
2  Cc1c(C(=O)Nc2ccc(F)c(C#N)c2)c(C)n(C)c1C(=O)C(=O)NC12CC(C1)C2            22.1
3  Cc1c(C(=O)Nc2ccc(F)c(C#N)c2)c(C)n(C)c1C(=O)C(=O)NC(C)(C)CO            80.9
4  Cc1c(C(=O)Nc2ccc(F)c(C#N)c2)c(Br)n(C)c1C(=O)C(=O)NC(C)(C)C             4.9
5  Cc1c(C(=O)Nc2ccc(F)c(C#N)c2)c(C)n(C)c1C(=O)C(=O)N[C@@H](C)C(F)(F)F             8.1
6  Cc1c(C(=O)Nc2ccc(F)c(C#N)c2)c(C)n(C)c1C(=O)C(=O)NC1CCOC1 (centres unmarked)            19.8
7  Cc1c(C(=O)Nc2ccc(F)c(C#N)c2)c(C)n(C)c1C(=O)C(=O)N[C@H](C)C(F)(F)F             7.5
